Sourced from patent US9981925B2

test_target: His-AKT (Full Length) (Homo sapiens (Human), UniProt P31749)
Sequence (P31749 whole entry): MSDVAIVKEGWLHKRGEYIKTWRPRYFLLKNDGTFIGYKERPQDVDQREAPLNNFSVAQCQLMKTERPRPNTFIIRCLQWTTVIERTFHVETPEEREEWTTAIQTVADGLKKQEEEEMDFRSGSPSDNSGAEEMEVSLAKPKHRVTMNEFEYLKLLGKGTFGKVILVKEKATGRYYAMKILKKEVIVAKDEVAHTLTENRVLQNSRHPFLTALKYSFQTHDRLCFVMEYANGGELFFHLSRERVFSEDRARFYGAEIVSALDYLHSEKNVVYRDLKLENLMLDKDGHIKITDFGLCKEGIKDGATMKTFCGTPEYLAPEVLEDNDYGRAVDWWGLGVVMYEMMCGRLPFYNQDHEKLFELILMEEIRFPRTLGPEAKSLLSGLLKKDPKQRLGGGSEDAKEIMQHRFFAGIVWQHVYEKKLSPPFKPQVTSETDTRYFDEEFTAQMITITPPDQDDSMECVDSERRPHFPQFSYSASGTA
test_name: AKT/PKB kinase assay
Assay type: biochemical
test_parameters: 160 μM ATP, 90 min at 25° C., Caliper mobility shift
observable: IC50

Reference set, count: 4
{"columns": ["structure_smiles_string", "test_target", "test_value"],
 "data": [
  ["CCNC[C@@H](Nc1ncnc2c(C(N)=O)ccnc12)c1ccc(C(F)(F)F)c(F)c1", "His-AKT (Full Length) (Homo sapiens (Human), UniProt P31749)", "25 to 100 nM"],
  ["NC(=O)c1ccnc2c(N[C@H](CN3CC(O)C3)c3ccc(Cl)c(C(F)(F)F)c3)ncnc12", "His-AKT (Full Length) (Homo sapiens (Human), UniProt P31749)", "25 to 100 nM"],
  ["CNC[C@@H](Nc1ncnc2c(C(N)=O)ccnc12)c1cccc(Cl)c1", "His-AKT (Full Length) (Homo sapiens (Human), UniProt P31749)", "< 25 nM"],
  ["NC(=O)c1ccnc2c(N[C@H](CN3CCC3)c3ccc(C(F)(F)F)cc3)ncnc12", "His-AKT (Full Length) (Homo sapiens (Human), UniProt P31749)", "101 to 500 nM"]
]}

stdin: Reported IC50 for `NC(=O)c1cncc2c(N[C@H](CN3CCC3)c3ccc(Cl)c(C(F)(F)F)c3)ncnc12` : what is it?
stdout: 25 to 100 nM

stdin: Query `COc1cc([C@@H](CN(C)C)Nc2nnnc3c(C(N)=O)cccc23)ccc1Cl` next
stdout: 101 to 500 nM

stdin: Input `CCNC[C@@H](Nc1ncnc2c(C(N)=O)ccnc12)c1cc(F)c(F)cc1F`
stdout: 101 to 500 nM

stdin: Another compound to check: `CCNC[C@@H](Nc1ncnc2c(C(N)=O)ccnc12)c1ccc(F)c(Br)c1`
stdout: 25 to 100 nM
